- system_under_test: Fc-fusion protein receptor ectodomain of BMPR-IB
- test_method_notes: ratio of Biacore KDs, BMPR-IA as reference; measurement 1
attribute_measured: log10 fold higher IB affinity over IA, KD(IA): KD(IB) (log10 of the value in fold)
All values: base-10 log of fold higher IB affinity over IA, KD(IA): KD(IB) in fold.

1. recombinant human GDF-5 wild type (ligand) APLATRQGKRPSKNLKARCSRKALHVNFKDMGWDDWIIAPLEYEAFHCEGLCEFPLRSHLEPTNHAVIQTLMNSMDPESTPPTACVPTRLSPISILFIDSANNVVYKQYEDMVVESCGCR; 2.09

The reported log10 fold higher IB affinity over IA, KD(IA): KD(IB) of the binder recombinant human GDF-5 mutant R399E (ligand) APLATRQGKRPSKNLKAECSRKALHVNFKDMGWDDWIIAPLEYEAFHCEGLCEFPLRSHLEPTNHAVIQTLMNSMDPESTPPTCCVPTRLSPISILFIDSANNVVYKQYEDMVVESCGCR was 2.11

Summary for this binder, human GDF-5 mutant S439K (ligand) APLATRQGKRPSKNLKARCSRKALHVNFKDMGWDDWIIAPLEYEAFHCEGLCEFPLRKHLEPTNHAVIQTLMNSMDPESTPPTCCVPTRLSPISILFIDSANNVVYKQYEDMVVESCGCR : log10 fold higher IB affinity over IA, KD(IA): KD(IB) is 3.38

Entry recombinant human GDF-5 mutant W414R (ligand) APLATRQGKRPSKNLKARCSRKALHVNFKDMGRDDWIIAPLEYEAFHCEGLCEFPLRSHLEPTNHAVIQTLMNSMDPESTPPTCCVPTRLSPISILFIDSANNVVYKQYEDMVVESCGCR , log10 fold higher IB affinity over IA, KD(IA): KD(IB) reported as 2.82

recombinant human GDF-5 mutant R399M (ligand) APLATRQGKRPSKNLKAMCSRKALHVNFKDMGWDDWIIAPLEYEAFHCEGLCEFPLRSHLEPTNHAVIQTLMNSMDPESTPPTCCVPTRLSPISILFIDSANNVVYKQYEDMVVESCGCR yielded log10 fold higher IB affinity over IA, KD(IA): KD(IB) of 2.33

The reported value for human GDF-5 mutant R438K (ligand) APLATRQGKRPSKNLKARCSRKALHVNFKDMGWDDWIIAPLEYEAFHCEGLCEFPLKSHLEPTNHAVIQTLMNSMDPESTPPTCCVPTRLSPISILFIDSANNVVYKQYEDMVVESCGCR in terms of log10 fold higher IB affinity over IA, KD(IA): KD(IB) is 2.86
